- Test system: Escherichia coli
- test.name: Inhibition of Escherichia coli MurA assessed as residual activity at 100 uM using UNAG and PEP as substrate preincubated for 30 mins in presence of UNAG followed by PEP addition and measured after 15 mins in presence of 5 mM cysteine by malachite green colorimetric assay relative to control
- study.conditions: time 45.0 min
Consider the following molecules and their measured Activity readings.
Output spec: scalar in %, unitless text.

Guide cases for Activity, answers given:
{"columns": ["molecule", "scale.unit", "Activity"],
 "data": [
  ["C=CS(=O)(=O)c1ccccc1 [(ETHENYLSULFONYL)BENZENE]", "%", 96],
  ["CCOC(=O)C#Cc1ccccc1", "%", 99]
]}

Record O=C(CCl)Nc1cc(C(F)(F)F)cc(C(F)(F)F)c1 . Reported Activity: 80

Record C/C=C/C#N . Reported Activity: 100

* * *

- target.of.assay: Cathepsin B (Homo sapiens) (UniProt P07858)
- test.name: Inhibition of recombinant cathepsin B (unknown origin) endopeptidase activity expressed in Escherichia coli assessed as residual activity at 100 uM using Z-RR-AMC as substrate preincubated for 30 mins under shaking in presence of 5 mM cysteine followed by substrate addition relative to control
endpoint.name: Activity

{"columns": ["compound", "reported.measurement"],
 "data": [
  ["O=C(CBr)c1ccccc1", "83%"]
]}

Field: next compound
Record CC#CC(=O)OCC . Reported Activity: 96%

* * *

- test.name: Inhibition of recombinant cathepsin X (unknown origin) expressed in Pichia pastoris assessed as residual activity at 100 uM using Abz-Fek(Dnp)-OH as substrate preincubated for 30 mins under shaking in presence of 5 mM cysteine followed by substrate addition relative to control
- study.conditions: Homo sapiens
# label = Y if Activity < 90% else N

// below: answered compounds
{"columns": ["compound", "classification"],
 "data": [
  ["C/C=C/C(=O)OC", "Y"],
  ["S=C=Nc1ccccc1 [PHENYLISOTHIOCYANATE]", "Y"],
  ["Cc1ccc(S)cc1", "N"],
  ["O=c1[nH]sc2ccccc12", "N"],
  ["CC#CC(=O)OCC", "N"]
]}

Okay, next one:
[ask] Is the reported Activity for COc1cc2c(cc1OC)CN(C(=O)CCl)CC2 strictly below 90%?
[reply] N

* * *

- test.name: Inhibition of Staphylococcus aureus MurA expressed in Escherichia coli using UNAG and PEP as substrate preincubated for 30 mins in presence of UNAG followed by PEP addition and measured after 15 mins by malachite green colorimetric assay
Consider the following compounds and their measured IC50 readings.
Number plus unit, in that order.

Guide cases for IC50, answers given:
{"columns": ["record.smiles", "IC50"],
 "data": [
  ["FC(F)(F)c1cccc(N=C=S)c1", "53 µM"],
  ["COc1cc2c(cc1OC)CN(C(=O)CCl)CC2", "171 µM"]
]}

Field: next compound
Record O=C1C=CC(=O)N1C1CCCCC1 . Reported IC50: 0.652 µM

* * *

- test.name: Inhibition of Staphylococcus aureus MurA expressed in Escherichia coli using UNAG and PEP as substrate preincubated for 30 mins in presence of UNAG followed by PEP addition and measured after 15 mins by malachite green colorimetric assay
endpoint.name: pIC50
Please note pIC50 is a logarithmic value: minus log10 of concentration in mol/L. Answer with that number alone.

{"columns": ["compound", "reported.measurement"],
 "data": [
  ["Cc1ccc(S)cc1", 5.11],
  ["O=C1C=CC(=O)N1Cc1ccccc1", 5.98],
  ["O=C(CCl)Nc1cc(C(F)(F)F)cc(C(F)(F)F)c1", 4.00],
  ["C=CS(=O)(=O)c1ccccc1 [(ETHENYLSULFONYL)BENZENE]", 4.47],
  ["O=C(CCl)c1ccccc1 [PHENACYL CHLORIDE]", 5.52]
]}

Record CCOC(=O)C#CC(F)(F)F . Reported pIC50: 4.33

Record COc1ccccc1C(=O)CBr . Reported pIC50: 5.74

Record O=c1[nH]sc2ccccc12 . Reported pIC50: 6.03

* * *

Consider the following compounds and their measured Activity readings.
- test.name: Inhibition of recombinant cathepsin X (unknown origin) expressed in Pichia pastoris assessed as residual activity at 100 uM using Abz-Fek(Dnp)-OH as substrate preincubated for 30 mins under shaking in presence of 5 mM cysteine followed by substrate addition relative to control
- study.conditions: Homo sapiens
Counter-ions that a name gives are not always drawn.
Output spec: scalar in %, unitless text.

Guide cases for Activity, answers given:
{"columns": ["compound", "scale.unit", "reported.measurement"],
 "data": [
  ["COc1ccc(N=C=S)cc1", "%", 55],
  ["S=C=NCc1ccccc1 [BENZYL ISOTHIOCYANATE]", "%", 22],
  ["O=C(CBr)c1ccccc1", "%", 75]
]}

Field: next compound
Record COC(=O)/C=C/C(=O)OC [DIMETHYL FUMARATE] . Reported Activity: 89

* * *

- Test system: Staphylococcus aureus
- test.name: Inhibition of Staphylococcus aureus MurA expressed in Escherichia coli assessed as residual activity at 100 uM using UNAG and PEP as substrate preincubated for 30 mins in presence of UNAG followed by PEP addition and measured after 15 mins by malachite green colorimetric assay relative to control
- study.conditions: time 45.0 min
Where a name gives a salt, the structure may show the parent alone.
endpoint.name: Activity (%)
Output spec: scalar in %, unitless text.

Guide cases for Activity, answers given:
{"columns": ["molecule", "Activity (%)"],
 "data": [
  ["C/C=N/Nc1cc2ccccc2cn1", 54],
  ["COc1ccc(N=C=S)cc1", 91],
  ["COc1ccccc1C(=O)CBr", 4],
  ["CC#CC(=O)OCC", 91],
  ["O=C1C=CC(=O)N1Cc1ccccc1", 0],
  ["O=C(CCl)Nc1cc(C(F)(F)F)cc(C(F)(F)F)c1", 96],
  ["CCOC(=O)C#Cc1ccccc1", 67],
  ["COc1cc2c(cc1OC)CN(C(=O)CCl)CC2", 54]
]}

Record S=C=NCc1ccccc1 [BENZYL ISOTHIOCYANATE] . Reported Activity: 41

Record O=c1[nH]sc2ccccc12 . Reported Activity: 0

Record COc1cc(NC(=O)CCl)cc(OC)c1 . Reported Activity: 52

Record S=C=Nc1ccccc1 [PHENYLISOTHIOCYANATE] . Reported Activity: 75

Record COC(=O)/C=C/C(=O)OC [DIMETHYL FUMARATE] . Reported Activity: 82

Record C=CC(=O)Nc1cc(C(F)(F)F)cc(C(F)(F)F)c1 . Reported Activity: 72

* * *

Consider the following molecules and their measured Activity readings.
- target.of.assay: UniProtKB P07858
- test.name: Inhibition of recombinant cathepsin B (unknown origin) exopeptidase activity expressed in Escherichia coli assessed as residual activity at 100 uM using Abz-GIVRAK(Dnp)-OH as substrate preincubated for 30 mins under shaking in presence of 5 mM cysteine followed by substrate addition relative to control
Counter-ions that a name gives are not always drawn.
Output spec: scalar in %, unitless text.

Guide cases for Activity, answers given:
{"columns": ["molecule", "scale.unit", "Activity"],
 "data": [
  ["O=C1C=CC(=O)N1Cc1ccccc1", "%", 87],
  ["CCOC(=O)C#Cc1ccccc1", "%", 70],
  ["COC(=O)/C=C/C(=O)OC [DIMETHYL FUMARATE]", "%", 100],
  ["C/C=C/C#N", "%", 87]
]}

Record S=C=NCc1ccccc1 [BENZYL ISOTHIOCYANATE] . Reported Activity: 18

Record FC(F)(F)c1cccc(N=C=S)c1 . Reported Activity: 97

Record O=C(CCl)c1ccccc1 [PHENACYL CHLORIDE] . Reported Activity: 34

Record O=C(CCl)Nc1ccccc1 . Reported Activity: 88

Record COc1ccc(N=C=S)cc1 . Reported Activity: 99

Record S=C=Nc1ccccc1 [PHENYLISOTHIOCYANATE] . Reported Activity: 98

* * *

- Tested on: Staphylococcus aureus
- test.name: Inhibition of Staphylococcus aureus MurA expressed in Escherichia coli assessed as residual activity at 100 uM using UNAG and PEP as substrate preincubated for 30 mins in presence of UNAG followed by PEP addition and measured after 15 mins by malachite green colorimetric assay relative to control
- study.conditions: time 45.0 min
endpoint.name: Activity
Number plus unit, in that order.

{"columns": ["molecule", "target.of.assay", "endpoint.name", "reported.measurement"],
 "data": [
  ["O=C(CCl)N1CCC(Cc2ccccc2)CC1", "Staphylococcus aureus", "Activity", "55%"],
  ["C/C=C/C(=O)OC", "Staphylococcus aureus", "Activity", "66%"],
  ["FC(F)(F)c1cccc(N=C=S)c1", "Staphylococcus aureus", "Activity", "9%"],
  ["O=C(CCl)c1ccccc1 [PHENACYL CHLORIDE]", "Staphylococcus aureus", "Activity", "7%"],
  ["Cc1ccc(S)cc1", "Staphylococcus aureus", "Activity", "23%"]
]}

Item O=C(CCl)Nc1ccccc1 ; assay system Staphylococcus aureus; Activity reported as 59%

Item O=C1C=CC(=O)N1C1CCCCC1 ; assay system Staphylococcus aureus; Activity reported as 0.3%

Item C/C=C/C#N ; assay system Staphylococcus aureus; Activity reported as 97%

Item O=C(CBr)c1ccccc1 ; assay system Staphylococcus aureus; Activity reported as 7%
